system: UACC-257 melanoma; experiment: NCI tumour cell line growth inhibition, 48 h
Reported TGI values are given for each entry in this list.

# molecule, measured on, TGI
records = [
    ("COc1ccc(-c2c(C(C)=O)c(C)n(C3OC(COC(C)=O)C(OC(C)=O)C(OC(C)=O)C3OC(C)=O)c(=S)c2C#N)cc1 (configuration not stated)", "UACC-257 melanoma", "> 100 µM"),
]

Inquiry: Let me know recorded TGI for CCOC(=O)Cc1csc(Nc2nc(O)c(C3=c4ccccc4=NC3=O)s2)n1 , thanks.
Reply text: > 100 µM

Inquiry: Let me know recorded TGI for COc1ncnn2ccc(-c3cnc4nc(C)n(Cc5nnc(C(C)F)o5)c4c3)c12 (configuration not stated) , thanks.
Reply text: > 100 µM

Inquiry: Let me know recorded TGI for NS(=O)(=O)c1ccc(N=Nc2c(O)[nH]c3cccc(CCc4ccncc4)c23)cc1 , thanks.
Reply text: > 25 µM

Inquiry: Let me know recorded TGI for N#C/C(=C\c1ccc([N+](=O)[O-])cc1)n1nnc2cc(F)c(F)cc21 , thanks.
Reply text: 5.65 µM

Inquiry: Let me know recorded TGI for COCN1C(=O)[C@@H]2CCCN2C(=O)c2ccc(Cl)cc21 , thanks.
Reply text: > 100 µM
